Where these numbers come from: PubChem BioAssay (NCATS)

- Test system: CP329
- Assay Notes: qHTS profiling for inhibitors of Plasmodium falciparum proliferation (AID 504749); note: nearly all actives have a fitted effect of over 60% in size
- Stated Conditions: P. falciparum in erythrocytes, SYBR Green DNA, 72 h; series mostly up to 12.8 µM
Inconclusive results are not listed. Calls of active or inactive are those of the source. Calls come from the whole dose curve; as a rule, active = well fitted inhibition curve with a large enough effect; inconclusive = small, poorly fitted or top-dose-only effect; inactive = flat fitted curve, though single readings scatter.
Outcome codes: active, inactive

| Molecule | Label |
| --- | --- |
| C[C@H](O)Cn1cnc2c1c(=O)n(C)c(=O)n2C | inactive |
| CCC(CCC(C)C1CCC2C3CC=C4CC(O)CC[C@@]4(C)C3CC[C@@]12C)C(C)C (some centres undefined) | inactive |
| O=C1O[C@H](CN2CCOCC2)CN1/N=C\c1ccc([N+](=O)[O-])o1 | inactive |
| C[C@]1(c2ccccc2)OC(C(=O)O)=CC1=O | inactive |
| NC(=O)c1ccc[n+]([C@@H]2O[C@H](COP(=O)([O-])OP(=O)(O)OC[C@H]3O[C@@H](n4cnc5c(N)ncnc54)[C@@H](O)[C@@H]3O)[C@@H](O)[C@@H]2O)c1 | inactive |
| Cc1ccc2c(c1)c1c3n2CCN[C@H]3CCC1 | inactive |
| Cc1cccc(CN2CCN([C@@H](c3ccccc3)c3ccc(Cl)cc3)CC2)c1 | inactive |
| C=CC1=C(C(=O)O)N2C(=O)[C@@H](NC(=O)/C(=N\OCC(=O)O)c3csc(N)n3)[C@@H]2SC1 | inactive |
| CO[C@]1(NC(=O)C2SC(=C(C(N)=O)C(=O)O)S2)C(=O)N2C(C(=O)O)=C(CSc3nnnn3C)CS[C@H]21 (some centres undefined) | inactive |
| CC[C@](C)(CN(C)C)OC(=O)c1ccccc1 | inactive |
| CC(C)(C)NC[C@H](O)COc1cccc2c1CCC(=O)N2 | inactive |
| CCC[C@@H]1O[C@@H]2C[C@@H]3[C@H]4CCC5=CC(=O)C=C[C@@]5(C)[C@H]4[C@H](O)C[C@@]3(C)[C@@]2(C(=O)CO)O1 | inactive |
| CC(=O)[C@@H]1CC[C@@H]2[C@@H]3C[C@H](C)C4=CC(=O)CC[C@@]4(C)[C@H]3[C@H](O)C[C@]21C | inactive |
| O=C(N/N=C\c1ccc([N+](=O)[O-])o1)c1ccc(O)cc1 | active |
| CNC1C(OC2C(O[C@@H]3C(O)C(O)[C@@H](N=C(N)N)C(O)C3N=C(N)N)OC(C)[C@@]2(O)CO)OC(CO)C(O)C1O (some centres undefined) | inactive |
| C[C@@]12CCC(=O)C=C1C=CC1C2CC[C@]2(C)C1CC[C@@]21CCC(=O)O1 (some centres undefined) | inactive |
| COC(=O)N/N=C/C1=C[N+](=O)c2ccccc2[N+]1=O | inactive |
| CN(C)CCn1nnnc1SCC1=C(C(=O)O)N2C(=O)[C@@H](NC(=O)Cc3csc(N)n3)[C@@H]2SC1 | inactive |
| CC(=O)N[C@@H]1C(O)OC(CO)C(O)C1O (some centres undefined) | inactive |
